The reported numbers originate from paper PMC7553701.

Assay: Biliary excretion
Assay type: cell-based
Settings: human HepatoPac cultures, plasma or biological fluid

# Molecule, solubility
measured = [
    ("O=C(CN1C(=O)C2(CCCC2)NC[C@H]1c1cc(F)cc(F)c1)Nc1ccc2c(c1)C[C@@]1(C2)C(=O)Nc2ncccc21 [MK-3207]", "50 µM"),
]

----------
Test system: NRF2
Assay: HEK cell CYP450-dependent versus -independent NRF2 stabilization assay
Format: cell-based, human
Settings: HEK-CYP cell lines, [− Dox] and [+ Dox]
Measurement Name: NRF2 activation with and without CYP450 expression

# Compound, Result
records = [
    ("COc1ccc2[nH]c([S+]([O-])Cc3ncc(C)c(OC)c3C)nc2c1 (stereo not shown)", "gave similar results"),
    ("C[S+]([O-])CCCCN=C=S (stereo not shown)", "gave similar results"),
    ("Cc1c(-c2cnccn2)ssc1=S", "gave similar results"),
]
